Target: hKIF18A (1-374) (Homo sapiens (Human), UniProt Q8NI77)
Sequence (Q8NI77 whole entry, looked up): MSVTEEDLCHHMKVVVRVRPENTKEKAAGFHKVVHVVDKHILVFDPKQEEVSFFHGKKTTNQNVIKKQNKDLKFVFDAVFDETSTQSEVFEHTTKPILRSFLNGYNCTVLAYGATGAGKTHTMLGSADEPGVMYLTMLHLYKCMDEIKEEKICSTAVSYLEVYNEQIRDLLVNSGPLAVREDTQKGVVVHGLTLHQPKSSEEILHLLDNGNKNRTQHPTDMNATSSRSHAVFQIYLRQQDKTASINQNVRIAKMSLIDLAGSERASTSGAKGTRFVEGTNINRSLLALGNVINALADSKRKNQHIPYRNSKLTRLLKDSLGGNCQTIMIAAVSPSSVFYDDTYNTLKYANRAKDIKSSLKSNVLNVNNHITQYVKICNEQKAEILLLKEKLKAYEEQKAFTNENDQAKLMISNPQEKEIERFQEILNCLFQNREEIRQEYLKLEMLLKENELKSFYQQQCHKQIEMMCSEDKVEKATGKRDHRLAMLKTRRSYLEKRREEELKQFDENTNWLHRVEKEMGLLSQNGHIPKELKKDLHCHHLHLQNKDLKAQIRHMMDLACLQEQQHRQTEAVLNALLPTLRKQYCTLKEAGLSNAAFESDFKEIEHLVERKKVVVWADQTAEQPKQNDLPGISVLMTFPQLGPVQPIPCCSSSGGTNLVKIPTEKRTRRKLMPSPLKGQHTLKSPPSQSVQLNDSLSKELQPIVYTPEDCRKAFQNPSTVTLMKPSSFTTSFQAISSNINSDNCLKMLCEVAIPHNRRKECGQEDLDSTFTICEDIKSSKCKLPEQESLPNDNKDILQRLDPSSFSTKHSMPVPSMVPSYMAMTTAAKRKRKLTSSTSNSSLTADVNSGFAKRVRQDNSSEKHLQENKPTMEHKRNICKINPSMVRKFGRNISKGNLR
Sequence (Q2XVP4 whole entry partner, looked up): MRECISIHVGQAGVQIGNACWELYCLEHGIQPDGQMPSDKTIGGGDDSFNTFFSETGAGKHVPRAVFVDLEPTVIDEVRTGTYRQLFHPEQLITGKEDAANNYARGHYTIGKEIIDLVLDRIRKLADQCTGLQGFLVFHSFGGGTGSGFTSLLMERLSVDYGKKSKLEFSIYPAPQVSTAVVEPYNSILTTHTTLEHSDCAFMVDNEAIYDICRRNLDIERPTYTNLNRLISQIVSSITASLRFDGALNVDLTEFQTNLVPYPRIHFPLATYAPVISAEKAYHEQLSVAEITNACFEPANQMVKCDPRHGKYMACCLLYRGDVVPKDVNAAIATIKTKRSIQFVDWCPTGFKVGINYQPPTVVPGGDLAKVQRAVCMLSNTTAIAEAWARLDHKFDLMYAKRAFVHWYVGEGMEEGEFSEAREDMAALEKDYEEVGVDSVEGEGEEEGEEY
Sequence (P02554 whole entry partner, looked up): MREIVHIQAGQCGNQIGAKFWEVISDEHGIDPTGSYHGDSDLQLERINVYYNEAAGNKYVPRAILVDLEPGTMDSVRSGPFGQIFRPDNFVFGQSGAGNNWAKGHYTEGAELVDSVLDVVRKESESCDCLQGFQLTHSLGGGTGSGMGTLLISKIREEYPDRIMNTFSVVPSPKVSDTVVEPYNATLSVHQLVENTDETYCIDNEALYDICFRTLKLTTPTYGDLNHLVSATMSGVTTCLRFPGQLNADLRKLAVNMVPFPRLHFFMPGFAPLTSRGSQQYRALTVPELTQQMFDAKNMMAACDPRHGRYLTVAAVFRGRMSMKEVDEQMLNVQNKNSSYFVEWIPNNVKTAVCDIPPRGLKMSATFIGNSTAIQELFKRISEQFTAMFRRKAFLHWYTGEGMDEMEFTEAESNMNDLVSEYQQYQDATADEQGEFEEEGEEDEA
Assay: Inhibition of KIF18A microtubule-dependent ATPase activity (ADP-Glo)
Conditions: KIF18A microtubule-dependent ATPase activity, biochemical assay
I'd appreciate it if you marked entries Satisfied when IC50 is lower than 0.01 µM and Not satisfied when it is not.

Please review the entries below; each comes with its answer.
>>> answer_label("CS(=O)(=O)c1ccc2c(c1)C1(CCCCC1)CN2C(=O)c1cccc(S(=O)(=O)N2CCCCC2)c1")
"Not satisfied"
>>> answer_label("CC(C)(C)S(=O)(=O)Nc1cccc(C(=O)N2CC3(CCC4(CC4)CC3)c3cc(NS(C)(=O)=O)ccc32)c1")
"Not satisfied"
>>> answer_label("CS(=O)(=O)Nc1ccc2c(c1)C1(CCC3(CC3)CC1)CN2C(=O)c1cccc([C@@H](O)CC2CCC2)c1 (single isomer, unassigned) [Compound 305a]")
"Satisfied"
>>> answer_label("CS(=O)(=O)Nc1ccc2c(c1)C1(CCC3(CC3)CC1)CN2C(=O)c1csc(S(=O)(=O)NC2CCC2)c1")
"Satisfied"

Then this compound:
Q: hey, is IC50 for CC1CN(S(=O)(=O)c2cccc(C(=O)N3CC4(CCC5(CC5)CC4)c4cc(NS(C)(=O)=O)ccc43)c2)C1 lower than 0.01 µM or not?
A: Not satisfied
